These data points were gathered from patent US20240272170A1.

measurement-target: VA Peptide (fluorescence polarization) (FITC on the C-terminal lysine)
assay-name: fluorescence polarization, FITC peptide titrated with protein
value-kind: Kd (nM)

>  <binder>
PS857 (designed binder, Variant of PS557; also called N41D, V72M, L68M) MPTAASATESAIEDTPAPARPEVDGRTKPKRQPRYHVVLWDDDDHTYQYVVVMLQSLFGHPPERGYRMAKEMDTQGRVIVLTTTREHAELKRDQIHAFGYDRLLARSKGSMKASIEAEE

>  <units-label>
nM

>  <measurement>
487

$$$$
>  <binder>
PS824 (designed binder, Variant of PS557) MPTAASATESAFEDTPAPARPEVDGRTKPKRQPRYHVVLWDDDDHTYQYVVVMLRSLFGHPPERGYRLAKEMDTQGRVIVLTTTREHAELKRDQIHAFGYDRLLARSKGSMKASIEAEE

>  <units-label>
nM

>  <measurement>
205

$$$$
>  <binder>
PS816 (designed binder, Variant of PS557; also called N41D, V72M) MPTAASATESAIEDTPAPARPEVDGRTKPKRQPRYHVVLWDDDDHTYQYVVVMLQSLFGHPPERGYRLAKEMDTQGRVIVLTTTREHAELKRDQIHAFGYDRLLARSKGSMKASIEAEE

>  <units-label>
nM

>  <measurement>
266

$$$$
>  <binder>
PS769 (designed binder, Variant of PS557; also called N41D) MPTAASATESAIEDTPAPARPEVDGRTKPKRQPRYHVVLWDDDDHTYQYVVVMLQSLFGHPPERGYRLAKEVDTQGRVIVLTTTREHAELKRDQIHAFGYDRLLARSKGSMKASIEAEE

>  <units-label>
nM

>  <measurement>
276

$$$$
